biological target: human B2 bradykinin receptors (Homo sapiens); construct: purchased Receptor Biology, Inc. (Baltimore, MD); host or cells: CHO-K1 cells transfected with the human B2 receptor (membranes); experiment: Bradykinin B2 (BK2) Receptor Binding Assay; conditions: membranes of CHO-K1 cells transfected with human B2 bradykinin receptors; ~0.25 nM [3H]NPC17731; 60 min at 25°C
Sequence (P30411 whole entry): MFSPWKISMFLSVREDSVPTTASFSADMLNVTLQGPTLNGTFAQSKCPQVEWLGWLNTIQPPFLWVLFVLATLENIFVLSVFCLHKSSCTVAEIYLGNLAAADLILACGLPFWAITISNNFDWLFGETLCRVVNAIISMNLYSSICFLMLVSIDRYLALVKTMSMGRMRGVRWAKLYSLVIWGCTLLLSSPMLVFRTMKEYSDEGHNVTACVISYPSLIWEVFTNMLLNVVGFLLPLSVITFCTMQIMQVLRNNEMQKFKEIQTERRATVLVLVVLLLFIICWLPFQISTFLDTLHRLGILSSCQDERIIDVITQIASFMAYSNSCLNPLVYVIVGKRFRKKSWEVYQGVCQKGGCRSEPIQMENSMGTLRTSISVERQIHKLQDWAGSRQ
Quantity: pKi
To interpret pKi, take it as minus log10 of a concentration measured in moles per litre.

Cc1ccc2cccc(OCc3c(Cl)ccc(N(C)C(=O)Cc4ccc(C(=O)c5ccc(C#N)cc5)n4C)c3Cl)c2n1 7.39
Cc1ccc2cccc(OCc3c(Cl)ccc(N(C)C(=O)Cc4ccc(C(=O)c5ccccc5[N+](=O)[O-])n4C)c3Cl)c2n1 6.77
Cc1ccc2cccc(OCc3c(Cl)cc(Cl)c(N(C)C(=O)Cc4ccc(C(=O)c5ccc(Cl)nc5)n4C)c3Cl)c2n1 7.06

Pending molecule:
input: Given the entry `Cc1ccc2cccc(OCc3c(Cl)ccc(N(C)C(=O)Cc4ccc(C(=O)c5ccccn5)n4C)c3Cl)c2n1` , what pKi was observed with human B2 bradykinin receptors (Homo sapiens)?
output: 6.24
